The values you see were collected from PubChem BioAssay (NCI).

system: KM12 colon; test: NCI-60 one-dose screen, 48 h; details: 10 µM unless noted
About 83,000 compounds went through this panel and 20% of them were active in at least one assay; those are over-represented in the sample as a whole. Calls of active or inactive are those of the source. Rule for the calls: active = growth percent below 10; inactive = the rest.
Labels: label 1 for active, label 0 for inactive

compound=COc1ccc(-c2nc3c(c(-c4ccccc4)nn3-c3ccccc3)c(-c3ccc(N4CCOCC4)cc3)c2C#N)cc1 label="label 0"
compound=c1ccc(C2=NN[C@H](c3cn(-c4ccccc4)nc3-c3ccccc3)C2)cc1 label="label 0"
compound=COc1ccc(N2CCC(=O)NC2=S)cc1 label="label 0"
compound=Oc1c(Cl)cc(Cl)c2ccc(Cn3cc(-c4cc(F)cc(F)c4)nn3)nc12 label="label 0"
compound=COc1ccc(-c2csc(NC(=O)CSc3nc(-c4ccccc4)cc(=O)[nH]3)n2)cc1 label="label 0"
compound=COc1ccc(/C=N/NC(=O)CCN2c3ccccc3Sc3ccccc32)cc1 label="label 0"
compound=COc1cc(-c2nc(SCCC(C)C)nc(Nc3ccccc3Cl)c2C#N)cc(OC)c1OC label="label 0"
compound=COc1cc2oc(-c3cccc(NC(=O)c4cccc(Br)c4)c3)cc(=O)c2c(OC)c1OC label="label 0"
compound="Cc1ccc(S(=O)(=O)N2CCCC2CO)cc1 (stereo not given)" label="label 0"
compound=O=C(O)c1[nH]c(=O)[nH]c(=O)c1[N+](=O)[O-] label="label 0"
compound=COc1cc(-c2cc(-c3cccs3)c(C#N)c(N3CCOCC3)n2)cc(OC)c1OC label="label 0"
compound=O=C(c1ccc(Cl)cc1)N1CCN(c2ccnc3cc(Cl)ccc23)CC1 label="label 0"
compound=N#Cc1cccc(-c2c(-c3ccc4ccccc4c3)oc3ccccc3c2=O)c1 label="label 0"
compound=Cc1c(-n2nnc(-c3nc4ccccc4s3)c2N)c(=O)n(-c2ccccc2)n1C label="label 0"
compound=CC(C)N1CCN(Cc2ccc3c(NNC(=O)c4ccccc4)nc4cc(F)ccc4n23)CC1 label="label 0"
compound=Cn1cc(-c2nonc2-c2c[nH]c3ccc(Br)cc23)c2cc(Br)ccc21 label="label 0"
compound=OCCNCCCOc1ccc2ncnc(Nc3ccc(Oc4cccc(C(F)(F)F)c4)c(Cl)c3)c2c1 label="label 1"
compound=O=C(CSc1nc2ccc([N+](=O)[O-])cc2[nH]1)Nc1ccc(F)cc1 label="label 0"
compound=C/C(=N\NC(=O)c1ccccc1O)c1cccc(/C(C)=N/NC(=O)c2ccccc2O)n1 label="label 0"
compound=Clc1ccc(Sc2cnc(-c3ccccc3)o2)cc1 label="label 0"
